# experiment notes: blockers of mitochondrial fusion, WT vs mutant – cell-based, chemical genetic, wild-type and mutant, confirmation (AID 1361)
# test conditions: Cell-based mitochondrial fusion phenotype, imaging, WT cells
The source made the active and inactive calls. How the calls were made is not given here.
measurement kind: IC50

IC50 lookup needed for CC(C)CCN(C(=S)Nc1cccc(F)c1)C(C)c1cccs1 (configuration not stated) , thanks.
19.4 µM

Field entry: CC(=O)Nc1sc2c(c1C(c1ccc(Cl)cc1)N1CCOCC1)CCCC2 (configuration not stated)
13 µM

Field entry: "N#CC(C#N)=C1C=CC=CN1/C(=C\c1ccccc1Cl)C(=O)c1ccccc1"
18.6 µM

Field entry: "O=C(Nc1ccc(Cl)cc1)N1CCN(c2ccc3nnc(-c4ccc(F)cc4)n3n2)CC1"
> 25 µM (inactive)

Field entry: "c1ccc2c(c1)[nH]c1c(N3CCCC3)ncnc12"
> 25 µM (inactive)

Field entry: "CS(=O)(=O)c1nc2ccccc2n1Cc1ccccc1"
> 25 µM (inactive)

Field entry: "CCOP(=O)(OCC)c1nc(/C=C/c2ccccc2)oc1NCc1ccccc1"
> 25 µM (inactive)

Field entry: "O=C(OC(c1ccc(NS(=O)(=O)c2ccccc2)cc1)(C(F)(F)F)C(F)(F)F)c1ccccc1"
18.2 µM

Field entry: "Cc1ccc(C(C)C)cc1OCC(=O)N/N=C/c1ccc2c(c1)OCCO2"
18.3 µM

Field entry: Cc1cc(N2CCN(C(c3ccccc3)c3ccc(Cl)cc3)CC2)n2ncnc2n1 (configuration not stated)
13.7 µM

Field entry: "FC(F)(F)c1cc(-c2ccccc2)nc(NCc2cccs2)n1"
18.8 µM

Field entry: "Cc1ccc(NC(=O)CCC(=O)OCC(=O)c2ccc(Oc3ccc([N+](=O)[O-])cc3)cc2)cc1C"
> 25 µM (inactive)

Field entry: "Clc1cccc(N=C2NN=C(c3ccc4c(c3)OCCO4)CS2)c1"
15.9 µM

Field entry: CN(C)c1ccc(O)c2c1CC1CC3[C@@H](N(C)C)C(=O)C(C(N)=O)=C(O)[C@]3(O)C(=O)C1=C2O (some centres not stated)
> 25 µM (inactive)

Field entry: "Cc1nc(N2CCCCC2)c2c(-c3cccs3)csc2n1"
22.4 µM

Field entry: CC1CCN(C(C)C(=O)Nc2ccccc2-c2ccccc2)CC1 (configuration not stated)
> 25 µM (inactive)

Field entry: "COc1cc(/C=C2\SC(=O)N(c3ccccc3Cl)C2=O)cc([N+](=O)[O-])c1O"
13.6 µM

Field entry: "CCC(CC)C(=O)c1c[nH]c(C(=O)NCCCN2CCOCC2)c1"
> 25 µM (inactive)

Field entry: "C1CCN=C(Nc2nc3c(s2)CCCC3)CC1"
> 25 µM (inactive)

Field entry: "C/C(N)=C(/C#N)C(=O)COC(=O)c1cc(S(=O)(=O)N2CCCCC2)ccc1C"
> 25 µM (inactive)

Field entry: "Cc1ccc(-n2cc(C(=O)c3ccc(F)cc3)nn2)cc1Cl"
> 25 µM (inactive)

Field entry: CN1CC(c2ccccc2)C2(SC(=S)N(Cc3ccco3)C2=O)C12C(=O)Nc1ccccc12 (configuration not stated)
6.9 µM

Provenance of the data: PubChem BioAssay AID1361
